Origin of values: patent US20250368627A1

molecular target: DDB1DB/DCAF15 and RBM39 R1R2 complex (Homo sapiens, UniProt Q14498+Q66K64); construct: Amino acids 150 to 331 of RBM39 were cloned into pGEX4T3; GST (from vector pGEX4T3); TEV cleavage site (N); RBM39 R1R2: E. coli (pGEX4T3); assay: DCAF15 RBM39 Complex Formation Assay (FRET); conditions: FRET ratio Em 665/Em 615, incubated overnight at 4° C.
Sequence (Q66K64 whole entry, the tested form may be a part): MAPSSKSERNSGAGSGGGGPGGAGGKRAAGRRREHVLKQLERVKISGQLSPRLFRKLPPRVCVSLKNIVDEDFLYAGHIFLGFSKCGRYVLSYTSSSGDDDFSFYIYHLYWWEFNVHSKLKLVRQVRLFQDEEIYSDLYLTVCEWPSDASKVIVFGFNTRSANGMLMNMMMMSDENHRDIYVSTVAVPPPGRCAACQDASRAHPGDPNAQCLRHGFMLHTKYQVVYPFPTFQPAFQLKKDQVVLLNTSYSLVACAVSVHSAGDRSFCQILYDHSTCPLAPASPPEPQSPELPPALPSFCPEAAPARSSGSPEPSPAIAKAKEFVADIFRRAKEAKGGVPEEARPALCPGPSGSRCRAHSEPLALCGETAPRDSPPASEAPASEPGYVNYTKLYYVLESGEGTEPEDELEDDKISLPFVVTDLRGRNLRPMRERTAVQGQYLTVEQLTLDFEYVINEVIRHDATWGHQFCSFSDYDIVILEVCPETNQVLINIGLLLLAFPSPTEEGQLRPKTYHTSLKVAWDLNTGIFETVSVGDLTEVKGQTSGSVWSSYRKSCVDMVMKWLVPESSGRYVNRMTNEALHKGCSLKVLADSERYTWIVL
Sequence (Q14498 150-331): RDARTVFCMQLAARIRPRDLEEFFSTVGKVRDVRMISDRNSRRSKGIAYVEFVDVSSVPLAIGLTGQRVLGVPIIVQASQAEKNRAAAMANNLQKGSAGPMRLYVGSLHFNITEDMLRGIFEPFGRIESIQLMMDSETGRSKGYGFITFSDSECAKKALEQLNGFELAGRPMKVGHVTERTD
Sequence (Q16531 with tags, fused parts or gaps DEL396-708 partner): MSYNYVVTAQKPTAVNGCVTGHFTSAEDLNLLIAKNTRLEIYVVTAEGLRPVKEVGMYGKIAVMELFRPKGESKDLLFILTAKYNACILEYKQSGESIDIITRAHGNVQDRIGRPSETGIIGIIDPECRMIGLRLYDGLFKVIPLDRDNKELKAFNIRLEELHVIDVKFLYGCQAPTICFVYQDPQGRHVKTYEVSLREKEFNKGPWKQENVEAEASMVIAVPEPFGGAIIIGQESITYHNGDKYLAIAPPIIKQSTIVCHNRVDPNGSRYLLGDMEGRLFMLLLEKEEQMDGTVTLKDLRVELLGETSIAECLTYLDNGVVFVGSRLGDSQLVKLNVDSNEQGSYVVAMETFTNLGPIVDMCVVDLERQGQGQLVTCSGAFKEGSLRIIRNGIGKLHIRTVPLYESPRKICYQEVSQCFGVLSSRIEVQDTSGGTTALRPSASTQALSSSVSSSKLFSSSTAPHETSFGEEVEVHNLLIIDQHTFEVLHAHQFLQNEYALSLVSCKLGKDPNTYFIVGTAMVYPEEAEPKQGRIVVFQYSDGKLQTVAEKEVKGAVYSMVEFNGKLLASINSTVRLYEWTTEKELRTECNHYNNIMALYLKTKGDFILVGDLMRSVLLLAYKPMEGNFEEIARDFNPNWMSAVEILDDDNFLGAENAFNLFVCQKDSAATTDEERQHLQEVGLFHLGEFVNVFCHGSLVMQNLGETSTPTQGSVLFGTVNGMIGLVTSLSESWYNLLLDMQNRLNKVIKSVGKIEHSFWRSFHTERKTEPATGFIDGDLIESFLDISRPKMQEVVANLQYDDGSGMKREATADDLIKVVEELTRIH
measured quantity: IC50

N#Cc1c[nH]c2c(NS(=O)(=O)c3cnn(CC(F)F)c3N)ccc(Cl)c12 :: < 250 nM
CCn1cc(S(=O)(=O)Nc2ccc(F)c3c(C#N)c[nH]c23)c(N)n1 :: < 250 nM
N#Cc1cc(C(F)(F)F)ccc1-n1cc(S(=O)(=O)Nc2cccc3c(Cl)c[nH]c23)cn1 :: > 1000 nM
N#Cc1c[nH]c2c(NS(=O)(=O)c3cnn([C@H]4C[C@H](O)C4)c3)ccc(Cl)c12 :: < 250 nM
N#Cc1c[nH]c2c(NS(=O)(=O)c3cnn(C45CC(C4)C5)c3)ccc(F)c12 :: < 250 nM
N#Cc1c[nH]c2c(NS(=O)(=O)c3cnn(C(F)F)c3)ccc(F)c12 :: < 250 nM
COCCN(c1cccc2c(Cl)c[nH]c12)S(=O)(=O)c1cnn(CCOC)c1 :: > 1000 nM
Cc1ccc(NS(=O)(=O)c2cnn(CC(C)(C)O)c2)c2[nH]cc(C#N)c12 :: < 250 nM

* * *

system: HCT116 human colorectal carcinoma cells; test: CellTiter-Glo Luminescent Cell Viability Assay; format: cell-based; conditions: HCT-116, 72 h, 3 days
pEC50: −log10 of the molar value.
The compounds listed here are annotated with their pEC50.
measured quantity: pEC50

COC(Cn1cc(S(=O)(=O)Nc2cccc3c(Cl)c[nH]c23)cn1)OC [Compound 32] :: 6.00 to 6.60
O=S(=O)(Nc1cccc2c(Cl)c[nH]c12)c1cnn(CC(F)F)c1 [Compound 7] :: 6.00 to 6.60
C[C@H](C(N)=O)n1cc(S(=O)(=O)Nc2ccc(Cl)c3c(C#N)c[nH]c23)cn1 [Compound 213] :: 6.00 to 6.60
CC1(n2ncc(S(=O)(=O)Nc3ccc(Cl)c4c(C#N)c[nH]c34)c2F)COC1 [Compound 130] :: 6.00 to 6.60
Cc1ccc(NS(=O)(=O)c2cnn(C)c2C)c2[nH]cc(C#N)c12 [Compound 113] :: > 6.60
Cc1ccc(NS(=O)(=O)c2cnn(S(C)(=O)=O)c2)c2[nH]cc(C#N)c12 [Compound 93] :: 6.00 to 6.60
N#Cc1c[nH]c2c(NS(=O)(=O)c3cnn(C(F)F)c3N)cccc12 [Compound 292] :: > 6.60
N#Cc1c[nH]c2c(NS(=O)(=O)c3cnn(CC(F)F)c3N)ccc(Cl)c12 [Compound 278] :: > 6.60
Cc1ccc(NS(=O)(=O)c2cnn(CC(=O)N(C)C)c2)c2[nH]cc(C#N)c12 [Compound 140] :: < 6.00
Cc1ccc(NS(=O)(=O)c2cnn([C@H]3C[C@@H](O)C3)c2)c2[nH]cc(C#N)c12 [Compound 193] :: 6.00 to 6.60
O=S(=O)(Nc1cccc2c(Cl)c[nH]c12)c1cnn(C2CC(O)C2)c1 (centres unmarked) [Compound 83] :: 6.00 to 6.60
N#CCC1(n2cc(S(=O)(=O)Nc3ccc(Cl)c4c(Cl)c[nH]c34)cn2)COC1 [Compound 160] :: > 6.60
CC(CCO)n1cc(S(=O)(=O)Nc2ccc(Cl)c3c(C#N)c[nH]c23)cn1 (centres unmarked) [Compound 237] :: > 6.60
Cn1ncc(S(=O)(=O)Nc2ccc(Cl)c3c(C#N)c[nH]c23)c1N [Compound 180] :: > 6.60
Cn1cc(S(=O)(=O)Nc2ccc(F)c3c(Cl)c[nH]c23)cn1 [Compound 54] :: 6.00 to 6.60
COC1CC(n2cc(S(=O)(=O)Nc3ccc(Cl)c4c(C#N)c[nH]c34)cn2)C1 (centres unmarked) [Compound 189] :: 6.00 to 6.60
N#Cc1c[nH]c2c(NS(=O)(=O)c3cnn(CC4(CO)CC4)c3)ccc(Cl)c12 [Compound 195] :: 6.00 to 6.60
